Provenance of the data: paper doi:10.1101/208041

subject-of-test: T1, dMpAgo (catalytically inactive MpAgo) (Marinitoga piezophila, UniProt H2J4R4 1-639, D446A)
T1 sequence: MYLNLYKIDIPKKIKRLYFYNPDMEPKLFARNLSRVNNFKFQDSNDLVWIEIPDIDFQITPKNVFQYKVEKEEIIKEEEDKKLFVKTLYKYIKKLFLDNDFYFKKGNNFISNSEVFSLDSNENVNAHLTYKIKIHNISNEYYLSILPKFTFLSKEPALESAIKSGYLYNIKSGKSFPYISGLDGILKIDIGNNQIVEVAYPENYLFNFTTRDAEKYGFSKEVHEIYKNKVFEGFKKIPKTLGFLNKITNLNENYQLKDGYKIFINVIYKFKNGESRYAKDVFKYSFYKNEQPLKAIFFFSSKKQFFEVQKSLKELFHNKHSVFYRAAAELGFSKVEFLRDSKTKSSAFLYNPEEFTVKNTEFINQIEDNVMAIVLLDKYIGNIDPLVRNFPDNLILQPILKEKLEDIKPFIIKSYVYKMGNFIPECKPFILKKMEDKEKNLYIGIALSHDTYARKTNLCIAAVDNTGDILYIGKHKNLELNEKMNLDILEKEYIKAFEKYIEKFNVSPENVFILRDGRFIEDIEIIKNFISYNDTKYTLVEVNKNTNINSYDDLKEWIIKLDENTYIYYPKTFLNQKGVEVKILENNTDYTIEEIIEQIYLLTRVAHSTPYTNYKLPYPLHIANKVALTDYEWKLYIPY
measurement-protocol: filter binding
Some binders, each annotated with its measured pKd.
The meaning of pKd here: minus log10 of the concentration in molar units.

Examples with their reported pKd follow.
binder	pKd
BrdU guide / 15-nt target (mixed, BrdU at guide 1) RNA 1: UAUACAACCUACUACCUCAUU RNA 2: GGACUAUGUAGAUCUAUAAUUACUCGUAGUAGGUUGUAUCUCAGGAGGUC	10.08
BrdU guide / ON target (mixed, BrdU at guide 1) RNA 1: UAUACAACCUACUACCUCAUU RNA 2: GGACUAUGAUCUAGAUAUUAAUGAGGUAGUAGGUUGUAUCUCAGGAGGUC	9.30

Attention now shifts to the item below.
I am curious: what pKd value has been reported for BrdU guide / 18-nt target (mixed, BrdU at guide 1) RNA 1: UAUACAACCUACUACCUCAUU RNA 2: GGACUAUGUAGAUCUAUAAUUAGAGGUAGUAGGUUGUAUCUCAGGAGGUC ?
9.97
